Data origin, for the record: BigSolDB 2.1

# TEST SETTINGS: in cyclohexanone, 298.25 K
VALUE TYPE: solubility (mole fraction)

• Nc1ccc(Cl)nn1 = 0.00455

###

# TEST SETTINGS: in ethyl acetate, 333.15 K
VALUE TYPE: solubility (mole fraction)

* Nc1ccc(Cl)nn1 | 0.00413

###

# TEST SETTINGS: in methanol, 298.15 K
VALUE TYPE: solubility (mole fraction)

• Nc1ccc(Cl)nn1 = 0.00388

###

# TEST SETTINGS: in n-butanol, 333.45 K
VALUE TYPE: solubility (mole fraction)

• Nc1ccc(Cl)nn1 = 0.00741

###

# TEST SETTINGS: in methanol, 308.05 K
VALUE TYPE: solubility (mole fraction)

• Nc1ccc(Cl)nn1 = 0.00525

###

# TEST SETTINGS: in ethanol, 303.25 K
VALUE TYPE: solubility (mole fraction)

- Nc1ccc(Cl)nn1: 0.00271

###

# TEST SETTINGS: in ethyl acetate, 303.35 K
VALUE TYPE: solubility (mole fraction)

• Nc1ccc(Cl)nn1 = 0.00166

###

# TEST SETTINGS: in methanol, 332.45 K
VALUE TYPE: solubility (mole fraction)

* Nc1ccc(Cl)nn1 | 0.0107

###

# TEST SETTINGS: in methanol, 303.35 K
VALUE TYPE: solubility (mole fraction)

- Nc1ccc(Cl)nn1: 0.00444

###

# TEST SETTINGS: in toluene, 338.35 K
VALUE TYPE: solubility (mole fraction)

* Nc1ccc(Cl)nn1 | 0.000352

###

# TEST SETTINGS: in ethyl acetate, 338.35 K
VALUE TYPE: solubility (mole fraction)

* Nc1ccc(Cl)nn1 | 0.00479

###

# TEST SETTINGS: in n-butanol, 343.15 K
VALUE TYPE: solubility (mole fraction)

• Nc1ccc(Cl)nn1 = 0.0102

###

# TEST SETTINGS: in n-butanol, 296.55 K
VALUE TYPE: solubility (mole fraction)

- Nc1ccc(Cl)nn1: 0.00171

###

# TEST SETTINGS: in cyclohexanone, 308.15 K
VALUE TYPE: solubility (mole fraction)

* Nc1ccc(Cl)nn1 | 0.00643

###

# TEST SETTINGS: in ethyl acetate, 323.25 K
VALUE TYPE: solubility (mole fraction)

- Nc1ccc(Cl)nn1: 0.00319

###

# TEST SETTINGS: in cyclohexanone, 313.15 K
VALUE TYPE: solubility (mole fraction)

• Nc1ccc(Cl)nn1 = 0.00782

###

# TEST SETTINGS: in ethanol, 323.15 K
VALUE TYPE: solubility (mole fraction)

- Nc1ccc(Cl)nn1: 0.006

###

# TEST SETTINGS: in cyclohexanone, 323.05 K
VALUE TYPE: solubility (mole fraction)

• Nc1ccc(Cl)nn1 = 0.0107

###

# TEST SETTINGS: in toluene, 323.25 K
VALUE TYPE: solubility (mole fraction)

* Nc1ccc(Cl)nn1 | 0.000202

###

# TEST SETTINGS: in ethyl acetate, 308.15 K
VALUE TYPE: solubility (mole fraction)

* Nc1ccc(Cl)nn1 | 0.00194

###

# TEST SETTINGS: in ethanol, 313.15 K
VALUE TYPE: solubility (mole fraction)

* Nc1ccc(Cl)nn1 | 0.00405
